Origin of the recorded values: patent US7208505B2

ASSAY_SYSTEM: human β3 adrenergic receptor (Homo sapiens, UniProt P13945)
Construct: expressed in transfected cells
Sequence (P13945 whole entry): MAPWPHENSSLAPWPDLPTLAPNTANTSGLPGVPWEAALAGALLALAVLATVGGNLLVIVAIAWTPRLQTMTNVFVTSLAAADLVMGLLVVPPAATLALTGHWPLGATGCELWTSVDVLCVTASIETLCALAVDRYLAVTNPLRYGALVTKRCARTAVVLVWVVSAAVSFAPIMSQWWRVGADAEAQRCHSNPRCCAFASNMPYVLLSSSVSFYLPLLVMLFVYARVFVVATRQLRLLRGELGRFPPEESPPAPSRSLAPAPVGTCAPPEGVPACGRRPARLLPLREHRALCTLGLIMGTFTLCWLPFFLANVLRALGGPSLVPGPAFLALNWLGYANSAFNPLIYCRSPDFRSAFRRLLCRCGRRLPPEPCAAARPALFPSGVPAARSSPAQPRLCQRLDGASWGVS
ASSAY_INFO: whole cell receptor coupled c-AMP assay (Emax relative to isoproterenol)
Type: cell-based
PARTICULARS: CHO, % intrinsic activity relative to isoproterenol; transfected CHO cells
REPORTED_ENDPOINT: Emax (%)
Numeric only. Scale: %

Use these answered entries as a reference point.
Quote Emax reported for CC(C)(Cc1c[nH]c2c(OCC#N)cccc12)NC[C@H](O)COc1ccccc1-c1ccc(C#N)s1 [Example 202] please. 85

Give the value of Emax reported for the following: CC(C)(Cc1c[nH]c2c(OCC(=O)O)cccc12)NC[C@H](O)COc1ccccc1-n1cccc1 [Example 203] 73.8

Specify measured Emax for C[C@@H](CN1CCc2cc(F)c(Cl)cc21)NC[C@H](O)COc1ccccc1-c1cccs1 [Example 195] . 8.9

Consider the additional compound presented here.
Indicate its recorded Emax; the compound in question is CC(C)(Cc1c[nH]c2cc(C(=O)O)ccc12)NC[C@H](O)COc1ccccc1-c1nccs1 [Example 204] 67
